Source listed as PubChem BioAssay (NCI).

system: SK-MEL-5 melanoma; assay: NCI tumour cell line growth inhibition, 48 h
experimental-readout: TGI (µM)
Field: numeric (µM). Do not append units.

# TGI (compound: `FC(F)(F)c1cc(-c2ncn(/C=C\c3nnco3)n2)cc(C(F)(F)F)c1` ) is 2.74

# TGI (compound: `O=C(NS(=O)(=O)c1ccc(NC[C@H]2COCCO2)c([N+](=O)[O-])c1)c1ccc(N2CCN(CC3=C(c4ccc(Cl)cc4)CC4(CCC4)CC3)CC2)cc1Oc1cnc2[nH]ccc2c1` ) is 2.97

# TGI (compound: `NCCCNc1nc2ccc(Cl)cc2c2c(=O)c3cc(F)ccc3sc12` ) is 30.2

# TGI (compound: `CC(C)OCc1cc(CN2CCN(c3cccc(Cl)c3)CC2)c(O)c2ncccc12` ) is 2.1

# TGI (compound: `N#Cc1c2ccccc2c2nnc3ccc(C(F)(F)F)cc3n12` ) is 39.8
